System: U2OS
assay_summary: Multiplex assay against U2OS
Assay type: toxicity, cell-based
condition_context: human, 12 h, 1 µM, compound concentration 1 uM, replicate 2
Collected Population Mitotic Cells (%) values appear next to each entry.
Give your result in % as a bare value.

Past entries and their recorded results:
{"columns": ["compound", "units_of_measure", "observed_value"],
 "data": [
  ["CCCCCNC(=N)N/N=C/c1c[nH]c2ccc(OC)cc12.O=C(O)/C=C\\C(=O)O [TEGASEROD MALEATE]", "%", 80],
  ["Cc1c(Nc2ccc(S(=O)(=O)N3CCN(C)CC3)cc2F)nc2ccc(-c3cnn(C4CC4)c3)cn2c1=O", "%", 100],
  ["C=CC(=O)Nc1cc(-n2c(=O)ccc3cnc4ccc(-c5ccc(NS(C)(=O)=O)cc5)cc4c32)ccc1C", "%", 66],
  ["Cc1ccc(S(=O)(=O)NC2c3ccccc3Oc3ccccc32)cc1", "%", 100],
  ["Cc1ccc(NC(=O)Nc2cc(C(F)(F)F)ccc2F)cc1Nc1ccc2c(c1)NC(=O)/C2=C\\c1ccc[nH]1", "%", 66],
  ["CCCc1cc(C)[nH]c(=O)c1CNC(=O)c1cc(-c2ccc(N3CCN(C(C)C)CC3)nc2)cc2c1cnn2C(C)C", "%", 80]
]}

Problem: Give the measured Population Mitotic Cells (%) of N#Cc1cccc(C(=O)Nc2cc(-c3ccccc3)nn2-c2ccccc2)c1 .
Solution: 83

Problem: Any idea what its Population Mitotic Cells (%) is? The compound is CC[C@@H]1C(=O)N(C)c2cnc(Nc3ccc(C(=O)NC4CCN(C)CC4)cc3OC)nc2N1C1CCCC1 [BI-2536]
Solution: 30
